Ref: patent US20240115574A1

# assay-system: nSMase2 (Homo sapiens (Human), UniProt Q9NY59)
# Sequence (Q9NY59 whole entry, species assumed): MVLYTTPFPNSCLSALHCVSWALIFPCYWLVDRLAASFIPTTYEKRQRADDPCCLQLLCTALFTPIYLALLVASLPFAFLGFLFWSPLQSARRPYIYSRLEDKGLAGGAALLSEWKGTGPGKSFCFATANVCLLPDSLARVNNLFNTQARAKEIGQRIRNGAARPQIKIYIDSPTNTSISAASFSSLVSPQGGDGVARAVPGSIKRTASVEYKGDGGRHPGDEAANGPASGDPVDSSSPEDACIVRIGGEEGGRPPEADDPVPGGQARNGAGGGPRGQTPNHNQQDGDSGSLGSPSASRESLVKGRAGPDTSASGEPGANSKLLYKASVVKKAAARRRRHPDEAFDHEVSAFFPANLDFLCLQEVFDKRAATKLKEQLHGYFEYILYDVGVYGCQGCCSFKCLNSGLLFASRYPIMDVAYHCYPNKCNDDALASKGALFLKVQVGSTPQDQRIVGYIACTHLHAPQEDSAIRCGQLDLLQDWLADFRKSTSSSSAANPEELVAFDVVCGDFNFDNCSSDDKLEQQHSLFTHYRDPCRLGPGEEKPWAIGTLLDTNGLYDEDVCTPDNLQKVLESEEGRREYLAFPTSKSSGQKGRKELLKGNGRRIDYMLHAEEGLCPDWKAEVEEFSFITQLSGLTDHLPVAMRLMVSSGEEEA
# assay-info: nSMase2 inhibition (Tables 1A, 1B)
# Type: biochemical
# test-conditions: nSMase2 inhibitors of formula (I), Table 1A; read-out: IC50
readout-type: IC50

For orientation, consider the following solved cases.
smiles-record: CC(=O)Nc1cccc(-c2c(C)nc3c(N4CC[C@@H](NC(C)=O)C4)cc(C)nn23)c1
test-value: > 1 µM

smiles-record: CC(=O)N[C@@H]1CCN(c2cc(C)nn3c(-c4ccc5c(c4)OCO5)c(C)nc23)C1
test-value: ≤ 1 µM

smiles-record: CC(=O)N[C@@H]1CCN(c2cc(Cl)nn3c(-c4ccc(F)cc4)c(C)nc23)C1
test-value: > 100 µM

smiles-record: CC(=O)N[C@@H]1CCN(c2cc(C)nn3c(-c4cccc(S(C)(=O)=O)c4)c(C)nc23)C1
test-value: > 1 µM

**Query** # IC50 lookup, item CC(=O)N[C@@H]1CCN(c2cc(C)nn3c(-c4ccc(O)cc4)c(C)nc23)C1
**Result** ≤ 1 µM
